- Target under test: 85/88 kDa calcium-independent phospholipase A2 (Homo sapiens)
- Sequence (whole entry): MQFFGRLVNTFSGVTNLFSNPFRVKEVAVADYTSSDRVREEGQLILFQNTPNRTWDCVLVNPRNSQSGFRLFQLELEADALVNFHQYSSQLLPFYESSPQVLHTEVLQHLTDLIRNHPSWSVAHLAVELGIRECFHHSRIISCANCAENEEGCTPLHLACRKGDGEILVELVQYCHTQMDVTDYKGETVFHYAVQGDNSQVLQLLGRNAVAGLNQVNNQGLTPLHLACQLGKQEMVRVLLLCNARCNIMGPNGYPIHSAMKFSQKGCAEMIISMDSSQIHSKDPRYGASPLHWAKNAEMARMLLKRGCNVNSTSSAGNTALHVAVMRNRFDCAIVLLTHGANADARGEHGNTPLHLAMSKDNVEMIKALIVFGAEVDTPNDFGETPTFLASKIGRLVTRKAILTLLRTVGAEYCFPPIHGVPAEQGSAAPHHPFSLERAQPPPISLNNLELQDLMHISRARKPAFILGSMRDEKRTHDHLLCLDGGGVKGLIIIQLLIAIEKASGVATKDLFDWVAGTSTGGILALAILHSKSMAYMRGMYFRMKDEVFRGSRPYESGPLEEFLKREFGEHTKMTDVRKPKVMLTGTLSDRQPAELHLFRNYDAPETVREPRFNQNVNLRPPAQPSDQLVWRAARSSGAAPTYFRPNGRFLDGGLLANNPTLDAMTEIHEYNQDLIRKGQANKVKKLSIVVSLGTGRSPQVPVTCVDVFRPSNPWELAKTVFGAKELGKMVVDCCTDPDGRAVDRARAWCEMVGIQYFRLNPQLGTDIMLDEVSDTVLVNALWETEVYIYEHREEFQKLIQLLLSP
- Test details: Inhibition of group 6A iPLA2 at 0.091 mole fraction

>  <Mol>
COC(=O)CCCNC(=O)C(=O)CCCCc1ccccc1

>  <inhibition [%]>
0

$$$$
>  <Mol>
CCCCCCCCCCCCCCC(=O)C(=O)NCCCC(=O)OC

>  <inhibition [%]>
25

$$$$
>  <Mol>
COC(=O)CCCNC(=O)C(=O)CCCc1ccccc1

>  <inhibition [%]>
0

$$$$
>  <Mol>
CCCCCCCC/C=C\CCCCCCCC(=O)C(=O)NCCCC(=O)O

>  <inhibition [%]>
0

$$$$
>  <Mol>
CCCCCCCCCCCCCCC(=O)C(=O)N[C@H](/C=C/C(=O)O)CCCC

>  <inhibition [%]>
0

$$$$
>  <Mol>
O=C(O)CCCNC(=O)C(=O)CCCCc1ccccc1

>  <inhibition [%]>
0

$$$$
>  <Mol>
O=C(O)CCCNC(=O)C(=O)CCCc1ccccc1

>  <inhibition [%]>
0

$$$$
>  <Mol>
NC(=O)C(=O)CCCCc1ccccc1

>  <inhibition [%]>
0

$$$$
>  <Mol>
CCCCCCCCCCCCCCC(=O)C(=O)NCCCC(=O)O

>  <inhibition [%]>
0

$$$$
